# ASSAY_TARGET: T1, Cynomolgus CXCR2 (cynomolgus, UniProt Q28519 3-353 (rhesus entry))
# T1 chain: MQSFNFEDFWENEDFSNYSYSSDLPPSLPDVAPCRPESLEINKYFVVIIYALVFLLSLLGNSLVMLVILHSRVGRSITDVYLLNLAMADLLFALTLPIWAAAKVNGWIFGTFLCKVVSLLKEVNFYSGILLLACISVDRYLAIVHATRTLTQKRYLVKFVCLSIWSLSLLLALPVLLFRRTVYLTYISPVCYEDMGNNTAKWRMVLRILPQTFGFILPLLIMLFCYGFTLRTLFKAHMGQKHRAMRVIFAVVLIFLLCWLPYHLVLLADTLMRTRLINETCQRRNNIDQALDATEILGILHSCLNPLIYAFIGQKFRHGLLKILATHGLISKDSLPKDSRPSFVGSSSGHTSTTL
# PROCEDURE_DETAILS: cell-based or functional assay
VALUE_KIND: FLIPR IC50, GRO-α induced intracellular calcium release (nM)
Answers are plain numbers, in nM.

| BINDER | RECORDED_RESULT |
| --- | --- |
| CXCR20013 (bispecific antibody, not shown: small tags and cut ends) EVQLVESGGELVQPGGSLRLSCAASGSILTINAMGWYRQAPGKQRELVVRRTRGGSTTYQDSVKGRFTISADIAKKTMYLQMNSLKPEDTAVYYCMLDDRGGVYWGQGTQVTVSSGGGGSGGGGSGGGGSGGGGSGGGGSGGGGSGGGGSEVQLVESGGGLVQPGGSLRLSCVASGSIVRINTMGWYRQTPGKQRELVADITSGGNINYIDAVKGRFTISRDNTKNTVYLQMNSLKPEDTAVYYCNAEIVVLVGVWTQRARTGNYWGQGTQVTVSS | 29.2 |

The record that follows has no FLIPR IC50, GRO-α induced intracellular calcium release shown yet.
Looking up CXCR20024 (VHH, not shown: small tags and cut ends) EVQLVESGGGLVQPGGSLRLSCVASGRIFSSNAMGWFRQAPGKEREFVAAITWRSGGSAYYADSAKGRFTISRDNAKNTVYLQMNSLKPEDTAVYYCAAGGSSWLSFPPDYWGQGTQVTVSSGGGGSGGGGSGGGGSGGGGSGGGGSGGGGSGGGGSEVQLVESGGGLVQPGGSLRLSCVASGRIFSSNAMGWFRQAPGKEREFVAAITWRSGGSAYYADSAKGRFTISRDNAKNTVYLQMNSLKPEDTAVYYCAAGGSSWLSFPPDYWGQGTQVTVSS , I see its FLIPR IC50, GRO-α induced intracellular calcium release listed as 11.8

Values from patent US20170101476A1
